# Procedure Summary: NCI Yeast Anticancer Drug Screen. Data for the rad52 strain (AID 147);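 also: 0% = growth of vehicle-treated control cultures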
# Recorded Conditions: S. cerevisiae rad52 mutant growth inhibition; at 3.7 µM; hits give high values
Compounds without any hit were thinned out: in the full panel of roughly 79,000, 15% have a hit.
Measured Parameter: growth inhibition (%)

INSERT INTO results (compound, endpoint_result) VALUES
  ('Oc1ccc(Cl)cc1Cc1ccccc1', 4),
  ('S=C1NC2(CCCCC2)NC12CCCCC2', -5),
  ('NC1=NCC(c2ccc(Cl)cc2)O1 (stereo unspecified)', -2),
  ('COC1CC(CC2CCC(C)C(C(C)C(=O)O)O2)OC2(OC(C)(C3CCC(C)(C4OC(C5OC(O)(CO)C(C)CC5C)CC4C)O3)CC2C)C1C (stereo unspecified)', -3),
  ('CCS(=O)(=O)[O][Sn]([CH2]C)([CH2]C)[O]S(=O)(=O)CC', -43),
  ('CC1CN1C1=C(Cl)C(=O)C(N2CC2C)=C(Cl)C1=O (stereo unspecified)', 40),
  ('CCNCC(=O)O[C@]1(CC)C(=O)OCc2c1cc1n(c2=O)Cc2cc3ccccc3nc2-1', 28),
  ('O=C(Nc1cc(Cl)ccc1Cl)C(Cl)(Cl)Cl', 6),
  ('OC(c1ccc(Br)cc1)C(Cl)(Cl)Cl (stereo unspecified)', -1),
  ('COc1cc(C2c3cc4c(cc3[C@@H](Nc3ccc(N)cc3)C3COC(=O)[C@H]23)OCO4)cc(OC)c1O (stereo partly specified)', 92),
  ('CCCCN(CCCC)CC(C(C)=O)C(c1ccccc1)c1c(O)c2ccccc2oc1=O (stereo unspecified)', 3),
  ('C[N+](CCCl)(CCCl)Cc1cccc2cccc([N+](=O)[O-])c12', 47),
  ('CCN(CC)CCBr', 4),
  ('O=C(/C=C(\c1ccccc1)N1CC1)c1ccccc1', -10),
  ('OC1CCCC2CCC[N-]C12.OC1CCCC2CCC[N-]C12.[O]=[V][OH] (stereo unspecified)', 98),
  ('c1ccc2cc3n[se]nc3cc2c1', 5);

====

# Procedure Summary: NCI Yeast Anticancer Drug Screen. Data for the rad50EPP+ strain (AID 151);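 also: 0% = growth of vehicle-treated control cultures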
# Recorded Conditions: S. cerevisiae rad50 mutant strain, at 11.0 µM, hits give high values
This is part of a sample that, as a whole, favours compounds with a hit. Of some 79,000 tested, about 15% had one in any assay.
Entry class follows growth inhibition: low bracket = under 10%, middle bracket = from 10% up to 50%, high bracket = 50% and over

INSERT INTO assay_data (compound, cat) VALUES
  ('CC(Cc1ccccc1)N(C)Cc1nc(C2CCC([N+](=O)[O-])O2)no1 (stereo not given)', 'middle bracket'),
  ('COc1cc2ccccc2c2cc([N+](=O)[O-])oc12', 'high bracket'),
  ('C[CH2][Sn]1([CH2]C)[O]C2C(O)OC(CO)C(O)C2[O]1 (stereo not given)', 'low bracket'),
  ('Oc1cccnc1[Se]', 'middle bracket'),
  ('N#Cc1cc(N(CCCl)CCCl)c([N+](=O)[O-])cc1[N+](=O)[O-]', 'middle bracket'),
  ('CC1=C(O)C(=O)C=C2C1=CC=C1[C@@]2(C)CCC2(C)[C@@H]3C[C@@H](C)C(=O)C[C@]3(C)CC[C@]12C (stereo not given in full)', 'middle bracket'),
  ('CC1CN=C(Nc2ccccc2)S1 (stereo not given)', 'low bracket'),
  ('Nc1nnc(N)n1-n1c(N)nnc1N', 'low bracket'),
  ('O=[N+]([O-])O.[NH-]C1CCCCC1[NH-].[NH-]C1CCCCC1[NH-].[NH-]C1CCCCC1[NH-].[OH-].[OH-].[OH-].[Pt+4].[Pt+4].[Pt+4] (stereo not given)', 'low bracket'),
  ('Oc1ccc2nc3ccccc3nc2c1', 'middle bracket'),
  ('CCN(CCCl)c1cc(CN(C)C)cc(NC(=O)c2ccc(C(=O)Nc3cc(CN(C)C)cc(N(CC)CCCl)c3)cc2)c1', 'low bracket'),
  ('CC1=C[C@H]2O[C@@H]3C[C@H]4OC(=O)/C=C\C=C\C(C(C)O)OCC(O)C(C)CC(=O)OC[C@@]2(C[C@@H]1O)[C@]4(C)[C@@]31CO1 (stereo not given in full)', 'low bracket'),
  ('Oc1ccc(Cl)cc1Cc1ccccc1', 'middle bracket'),
  ('CN(C)CCSC1=Nc2ccc(Cl)cc2C(c2ccccc2Cl)=NC1', 'low bracket'),
  ('Oc1cccc2cccnc12', 'high bracket'),
  ('Cc1ccc2c(c1)C1(C)c3cc(C)ccc3SP1S2 (stereo not given)', 'middle bracket'),
  ('Cc1c([N+](=O)[O-])oc2ccc3ccccc3c12', 'high bracket'),
  ('O=C1C=CC(=O)C1(Br)Br', 'middle bracket'),
  ('CC[C@@]1(O)C(=O)OCc2c1cc1n(c2=O)Cc2cc3ccccc3nc2-1', 'high bracket'),
  ('C[N+](CCCl)(CCCl)Cc1cccc2cccc([N+](=O)[O-])c12', 'high bracket'),
  ('CCC1(OC(=O)CN)C(=O)OCc2c1cc1n(c2=O)Cc2cc3ccccc3nc2-1 (stereo not given)', 'high bracket'),
  ('O=C(c1ccccc1)C1C(c2ccccc2[N+](=O)[O-])N1C1CCCCC1 (stereo not given)', 'middle bracket'),
  ('C[C@@]12CCC(=O)C=C1CC[C@H]1C2=CC[C@]2(C)C1CC[C@@]2(C)O (stereo not given in full)', 'low bracket');
